Ref: ChEMBL document CHEMBL1140053

system: Mycolicibacterium smegmatis; assay: Antimycobacterial activity against Mycobacterium smegmatis MC2 by agar dilution method; format: functional
Please note: MIC exactly at 10 µg/mL is NOT MET. Only values below 10 µg/mL get MET.

{"Molecule": "CN1C/C(=C\\c2ccccc2Cl)C(=O)[C@]2(C1)[C@@H](c1ccccc1Cl)CN(C)[C@@]21C(=O)Nc2ccccc21 (racemic)", "Discrete Label": "MET"}
{"Molecule": "CN1C/C(=C\\c2ccccc2Cl)C(=O)[C@]2(C1)[C@@H](c1ccccc1Cl)[C@@H]1CCCN1[C@@]21C(=O)Nc2ccccc21 (racemic)", "Discrete Label": "MET"}
{"Molecule": "CN1C/C(=C\\c2cccc3ccccc23)C(=O)[C@]2(C1)[C@@H](c1cccc3ccccc13)[C@@H]1CCCN1[C@@]21C(=O)Nc2ccccc21 (racemic)", "Discrete Label": "NOT MET"}
{"Molecule": "COc1ccccc1/C=C1\\CN(C)C[C@@]2(C1=O)[C@@H](c1ccccc1OC)[C@@H]1CCCN1[C@@]21C(=O)Nc2ccccc21 (racemic)", "Discrete Label": "MET"}
{"Molecule": "CN1C/C(=C\\c2ccc(F)cc2)C(=O)[C@]2(C1)[C@@H](c1ccc(F)cc1)[C@@H]1CCCN1[C@@]21C(=O)Nc2ccccc21 (racemic)", "Discrete Label": "NOT MET"}
{"Molecule": "CN1C/C(=C\\c2ccco2)C(=O)[C@]2(C1)[C@@H](c1ccco1)[C@@H]1CCCN1[C@@]21C(=O)Nc2ccccc21 (racemic)", "Discrete Label": "NOT MET"}
